MEASUREMENT TARGET: rat RabGGT (Rattus norvegicus, UniProt Q08602+Q08603)
Construct: purchased Calbiochem 345855; host or cells: Sf9/baculovirus
Sequence (Q08602 1-567): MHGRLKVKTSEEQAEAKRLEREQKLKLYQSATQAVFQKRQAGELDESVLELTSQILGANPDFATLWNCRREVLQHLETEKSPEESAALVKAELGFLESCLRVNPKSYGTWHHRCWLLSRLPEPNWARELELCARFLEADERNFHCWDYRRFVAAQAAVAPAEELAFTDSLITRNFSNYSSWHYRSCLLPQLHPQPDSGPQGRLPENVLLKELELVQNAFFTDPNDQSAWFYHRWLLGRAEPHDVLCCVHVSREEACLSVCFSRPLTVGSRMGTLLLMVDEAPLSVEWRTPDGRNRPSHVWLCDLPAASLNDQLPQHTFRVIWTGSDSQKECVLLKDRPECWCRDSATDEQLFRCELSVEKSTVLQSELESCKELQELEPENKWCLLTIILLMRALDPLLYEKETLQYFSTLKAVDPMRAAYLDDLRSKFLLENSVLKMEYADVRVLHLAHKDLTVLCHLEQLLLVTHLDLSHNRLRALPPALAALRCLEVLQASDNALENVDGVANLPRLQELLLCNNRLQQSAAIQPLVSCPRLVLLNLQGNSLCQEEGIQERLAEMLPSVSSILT
Sequence (Q08603 1-331): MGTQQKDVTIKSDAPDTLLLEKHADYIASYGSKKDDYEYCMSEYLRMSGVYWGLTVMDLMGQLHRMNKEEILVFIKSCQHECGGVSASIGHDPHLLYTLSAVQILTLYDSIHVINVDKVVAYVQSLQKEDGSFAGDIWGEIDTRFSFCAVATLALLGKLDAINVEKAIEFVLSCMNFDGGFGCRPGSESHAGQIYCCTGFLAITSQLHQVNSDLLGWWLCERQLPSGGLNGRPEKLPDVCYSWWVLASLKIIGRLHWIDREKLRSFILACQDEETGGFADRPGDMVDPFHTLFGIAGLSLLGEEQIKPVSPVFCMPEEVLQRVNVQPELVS
PROTOCOL NOTES: RabGGT filter binding assay: transfer of (3H)geranylgeranyl from 3H-GGPP to recombinant Rab3A
Type: biochemical
TEST PARAMETERS: RabGGT inhibition
Protocol: The effect of compounds 7A through 7T on RabGGT activity was quantified using a filter binding assay that measures the transfer of (3H) geranylgeranyl groups (GG) from all-trans-(3H)geranylgeranyl pyrophosphate (3H-GGPP) to recombinant Rab3A protein (Shen & Seabra, 1996, JBC, 271 :3692; Armstrong et al., 1996, Methods in Enzymology 257:30). […] The data was analyzed by non-linear regression analysis methods using the program PRIZM (GraphPad Software, Inc.). […]
READOUT: IC90/IC50

// worked examples, IC90/IC50 included
N#Cc1ccc2c(c1)CN(S(=O)(=O)N1CCCCC1)[C@H](Cc1ccccc1)CN2Cc1cnc[nH]1; 9
C=C(C)CN(C1Cc2cc(C#N)ccc2N(Cc2cncn2C)C1)S(=O)(=O)N1CC=CC1 (stereo not shown); 19

[a] Cn1cncc1CN1CC(NS(=O)(=O)c2ccccn2)Cc2cc(C#N)ccc21 (stereo not shown)
[b] COc1ccc(S(=O)(=O)N2Cc3cc(C#N)ccc3N(Cc3cnc[nH]3)C[C@H]2Cc2ccccc2)cc1
[c] Cn1cncc1CN1C[C@@H](Cc2ccccc2)N(S(=O)(=O)c2cccs2)Cc2cc(C#N)ccc21
[d] Cn1cc(S(=O)(=O)N(Cc2ccsc2)C2Cc3cc(C#N)ccc3N(Cc3cncn3C)C2)cn1 (stereo not shown)
Order the 4 compounds from highest to lowest IC90/IC50. Answer by writing out the labels in the requested order.
a, d, b, c
(a: 19, d: 12, b: 8, c: 5)

[a] Cn1cncc1CN1CC(N(CC(=O)OC(C)(C)C)S(=O)(=O)c2ccccn2)Cc2cc(C#N)ccc21 (stereo not shown)
[b] COc1ccc(S(=O)(=O)N2Cc3cc(C#N)ccc3N(Cc3cncn3C)C[C@H]2Cc2ccccc2)cc1
Please indicate which entry, a or b , has the lower recorded IC90/IC50 value. // return label of chosen record
b
(b: 6, a: 19)
